Hey, just so you know, these numbers are from the supplement of paper PMC7877785.

- method.notes: self-splicing fitness, log relative to wild type (ln ratio); higher = more splicing; Tetrahymena group I intron in knt gene, E. coli kanamycin selection, DiMSum; sequences stand for … in CUCUCU…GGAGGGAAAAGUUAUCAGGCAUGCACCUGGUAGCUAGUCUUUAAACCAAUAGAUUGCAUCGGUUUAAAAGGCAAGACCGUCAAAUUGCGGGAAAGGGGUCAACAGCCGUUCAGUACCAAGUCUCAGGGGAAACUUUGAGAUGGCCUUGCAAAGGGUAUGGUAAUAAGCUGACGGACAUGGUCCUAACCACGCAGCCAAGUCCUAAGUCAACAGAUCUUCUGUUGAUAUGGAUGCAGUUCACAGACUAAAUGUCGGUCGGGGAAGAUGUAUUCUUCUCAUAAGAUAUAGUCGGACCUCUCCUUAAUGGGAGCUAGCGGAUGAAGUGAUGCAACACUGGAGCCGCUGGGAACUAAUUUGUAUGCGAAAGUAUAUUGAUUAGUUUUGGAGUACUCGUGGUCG;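 note: selection with 25 µg/mL kanamycin versus none on LB agar overnight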
- assay.setup: 30 °C
We use -2 as the dividing line for self-splicing fitness (ln): on or above the line is fulfilled, below is not fulfilled.

Challenge: self-splicing fitness (ln) >= -2 for AACAAGCAAUAUUACGACGU ?
Response given: fulfilled

Challenge: self-splicing fitness (ln) >= -2 for CUUAAGCAAUAUUACGGGGU ?
Response given: not fulfilled

Challenge: self-splicing fitness (ln) >= -2 for CCACAGCAAUAUUACGCUGC ?
Response given: not fulfilled

Challenge: self-splicing fitness (ln) >= -2 for GUUCAGCAAUAUUACGGGUA ?
Response given: not fulfilled

Challenge: self-splicing fitness (ln) >= -2 for CGCUAGCAAUAUUACGGAGC ?
Response given: not fulfilled

Challenge: self-splicing fitness (ln) >= -2 for UAAGAGCAAUAUUACGAUCA ?
Response given: not fulfilled

Challenge: self-splicing fitness (ln) >= -2 for CUUUAGCAAUAUUACGCUCU ?
Response given: not fulfilled

Challenge: self-splicing fitness (ln) >= -2 for UGGUAGCAAUAUUACGUGCG ?
Response given: fulfilled

Challenge: self-splicing fitness (ln) >= -2 for GGAGAGCAAUAUUACGUAAG ?
Response given: not fulfilled

Challenge: self-splicing fitness (ln) >= -2 for UGUCAGCAAUAUUACGGUUU ?
Response given: fulfilled

Others:
Challenge: self-splicing fitness (ln) >= -2 for ACAAAGCAAUAUUACGUUCG ?
Response given: fulfilled

Challenge: self-splicing fitness (ln) >= -2 for GGGUAGCAAUAUUACGUACU ?
Response given: not fulfilled

Challenge: self-splicing fitness (ln) >= -2 for GACGAGCAAUAUUACGUGAC ?
Response given: not fulfilled

Challenge: self-splicing fitness (ln) >= -2 for CUCUAGCAAUAUUACGCAAC ?
Response given: not fulfilled

Challenge: self-splicing fitness (ln) >= -2 for CGAUAGCAAUAUUACGGCUA ?
Response given: not fulfilled

====

Readings of self-splicing fitness (ln) for the listed sequences
- method.notes: self-splicing fitness, log relative to wild type (ln ratio); higher = more splicing; Tetrahymena group I intron in knt gene, E. coli kanamycin selection, DiMSum; sequences stand for … in CUCUCU…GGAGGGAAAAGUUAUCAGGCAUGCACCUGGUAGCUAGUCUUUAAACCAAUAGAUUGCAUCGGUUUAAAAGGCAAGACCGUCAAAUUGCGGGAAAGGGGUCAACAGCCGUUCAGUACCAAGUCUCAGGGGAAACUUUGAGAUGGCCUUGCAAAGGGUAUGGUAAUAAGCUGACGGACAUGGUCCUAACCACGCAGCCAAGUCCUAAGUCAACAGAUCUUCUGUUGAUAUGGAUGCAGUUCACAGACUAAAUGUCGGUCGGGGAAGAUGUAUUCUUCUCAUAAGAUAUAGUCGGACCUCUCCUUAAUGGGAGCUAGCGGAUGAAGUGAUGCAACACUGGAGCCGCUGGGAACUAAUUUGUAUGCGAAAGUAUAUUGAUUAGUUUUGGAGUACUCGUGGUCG
- assay.setup: 30 °C
// no unit string in output, number only

Consider the reported self-splicing fitness (ln) for these sequences:
Challenge: GET /values?readout=self-splicing fitness (ln)&item= GUUGAGCAAUAUUACGGCCU
Response given: -2.03

Challenge: GET /values?readout=self-splicing fitness (ln)&item= GAAAAGCAAUAUUACGCCGG
Response given: -1.34

Challenge: GET /values?readout=self-splicing fitness (ln)&item= AACCAGCAAUAUUACGAAAG
Response given: -3.21

Challenge: GET /values?readout=self-splicing fitness (ln)&item= UGACAGCAAUAUUACGUUCC
Response given: -1.55

Challenge: GET /values?readout=self-splicing fitness (ln)&item= CCGUAGCAAUAUUACGUACA
Response given: -2.04

Challenge: GET /values?readout=self-splicing fitness (ln)&item= UGCCAGCAAUAUUACGACAU
Response given: -3.37

Challenge: GET /values?readout=self-splicing fitness (ln)&item= CAACAGCAAUAUUACGCGUU
Response given: -3.77

Challenge: GET /values?readout=self-splicing fitness (ln)&item= GCAUAGCAAUAUUACGGCGC
Response given: -0.822

Challenge: GET /values?readout=self-splicing fitness (ln)&item= AAGAAGCAAUAUUACGACCA
Response given: -0.349

Challenge: GET /values?readout=self-splicing fitness (ln)&item= CUUUAGCAAUAUUACGGACA
Response given: -2.76

Others:
Challenge: GET /values?readout=self-splicing fitness (ln)&item= CCCCAGCAAUAUUACGUUGG
Response given: -3.95

Challenge: GET /values?readout=self-splicing fitness (ln)&item= AGUUAGCAAUAUUACGUUGU
Response given: -4.38

Challenge: GET /values?readout=self-splicing fitness (ln)&item= AACAAGCAAUAUUACGCGAG
Response given: -1.58

Challenge: GET /values?readout=self-splicing fitness (ln)&item= AGAGAGCAAUAUUACGAUUG
Response given: -3.12

Challenge: GET /values?readout=self-splicing fitness (ln)&item= GGCCAGCAAUAUUACGAUGG
Response given: -4.28

Challenge: GET /values?readout=self-splicing fitness (ln)&item= CCUAAGCAAUAUUACGCGCC
Response given: -2.47

Challenge: GET /values?readout=self-splicing fitness (ln)&item= CGUAAGCAAUAUUACGAACC
Response given: -0.935

Challenge: GET /values?readout=self-splicing fitness (ln)&item= GGUUAGCAAUAUUACGAUAG
Response given: -1.82

====

Readings of self-splicing fitness (ln) for the listed sequences
- method.notes: self-splicing fitness, log relative to wild type (ln ratio); higher = more splicing; Tetrahymena group I intron in knt gene, E. coli kanamycin selection, DiMSum; sequences stand for … in CUCUCU…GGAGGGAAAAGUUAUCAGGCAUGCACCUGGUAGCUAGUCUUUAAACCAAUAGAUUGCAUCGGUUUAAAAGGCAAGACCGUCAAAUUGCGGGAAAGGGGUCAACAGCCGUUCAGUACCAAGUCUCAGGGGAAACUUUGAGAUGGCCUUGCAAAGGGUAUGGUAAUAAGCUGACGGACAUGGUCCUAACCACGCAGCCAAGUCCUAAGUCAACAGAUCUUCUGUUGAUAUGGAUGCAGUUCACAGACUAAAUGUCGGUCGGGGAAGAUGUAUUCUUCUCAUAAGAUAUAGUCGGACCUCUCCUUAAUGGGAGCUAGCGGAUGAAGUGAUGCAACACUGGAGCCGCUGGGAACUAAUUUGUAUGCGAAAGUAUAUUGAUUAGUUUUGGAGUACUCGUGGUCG
- assay.setup: 30 °C
// no unit string in output, number only

Consider the reported self-splicing fitness (ln) for these sequences:
Challenge: GET /values?readout=self-splicing fitness (ln)&item= GUUCAGCAAUAUUACGGCUU
Response given: -0.546

Challenge: GET /values?readout=self-splicing fitness (ln)&item= UAGUAGCAAUAUUACGAUCG
Response given: -0.771

Challenge: GET /values?readout=self-splicing fitness (ln)&item= GAGGAGCAAUAUUACGUCUU
Response given: -3.65

Challenge: GET /values?readout=self-splicing fitness (ln)&item= GCAGAGCAAUAUUACGUGUA
Response given: -3.61

Challenge: GET /values?readout=self-splicing fitness (ln)&item= AUCCAGCAAUAUUACGCUCA
Response given: 0.0746

Others:
Challenge: GET /values?readout=self-splicing fitness (ln)&item= UGGUAGCAAUAUUACGCCCA
Response given: -0.775

Challenge: GET /values?readout=self-splicing fitness (ln)&item= UGCUAGCAAUAUUACGCAAU
Response given: -3.02

Challenge: GET /values?readout=self-splicing fitness (ln)&item= GGUUAGCAAUAUUACGCUGA
Response given: -3.14

Challenge: GET /values?readout=self-splicing fitness (ln)&item= CUUUAGCAAUAUUACGUGAG
Response given: -1.07

====

Readings of self-splicing fitness (ln) for the listed sequences
- method.notes: self-splicing fitness, log relative to wild type (ln ratio); higher = more splicing; Tetrahymena group I intron in knt gene, E. coli kanamycin selection, DiMSum; sequences stand for … in CUCUCU…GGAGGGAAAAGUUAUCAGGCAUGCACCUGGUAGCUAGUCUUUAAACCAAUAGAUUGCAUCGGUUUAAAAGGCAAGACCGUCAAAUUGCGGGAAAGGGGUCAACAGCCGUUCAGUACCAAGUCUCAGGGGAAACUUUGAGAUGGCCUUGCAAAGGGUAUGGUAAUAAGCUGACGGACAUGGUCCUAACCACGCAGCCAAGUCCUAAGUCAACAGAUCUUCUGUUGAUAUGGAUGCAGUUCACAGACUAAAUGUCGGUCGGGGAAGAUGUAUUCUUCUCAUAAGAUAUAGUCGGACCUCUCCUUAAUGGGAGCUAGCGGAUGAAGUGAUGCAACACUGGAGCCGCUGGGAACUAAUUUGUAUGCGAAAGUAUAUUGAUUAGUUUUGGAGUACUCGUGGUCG
- assay.setup: 37 °C
// no unit string in output, number only

Consider the reported self-splicing fitness (ln) for these sequences:
Challenge: GET /values?readout=self-splicing fitness (ln)&item= ACCCAGCAAUAUUACGAGUA
Response given: -1.02

Challenge: GET /values?readout=self-splicing fitness (ln)&item= UAAUAGCAAUAUUACGAGAC
Response given: -2.03

Challenge: GET /values?readout=self-splicing fitness (ln)&item= CGUUAGCAAUAUUACGACUU
Response given: -0.0418

Challenge: GET /values?readout=self-splicing fitness (ln)&item= CACGAGCAAUAUUACGUGCU
Response given: -2.99

Challenge: GET /values?readout=self-splicing fitness (ln)&item= UGGAAGCAAUAUUACGAGCU
Response given: -0.801

Others:
Challenge: GET /values?readout=self-splicing fitness (ln)&item= ACAGAGCAAUAUUACGGCUA
Response given: -1.41

Challenge: GET /values?readout=self-splicing fitness (ln)&item= AGUGAGCAAUAUUACGAAUA
Response given: -1.17

Challenge: GET /values?readout=self-splicing fitness (ln)&item= UAAUAGCAAUAUUACGAGGC
Response given: -1.46

Challenge: GET /values?readout=self-splicing fitness (ln)&item= GGCGAGCAAUAUUACGCGUG
Response given: -0.666

Challenge: GET /values?readout=self-splicing fitness (ln)&item= CAGCAGCAAUAUUACGGUGU
Response given: -2.72

Challenge: GET /values?readout=self-splicing fitness (ln)&item= CAACAGCAAUAUUACGAUUC
Response given: -0.733

Challenge: GET /values?readout=self-splicing fitness (ln)&item= CUUAAGCAAUAUUACGACUU
Response given: -1.74
